biological target: Vanilloid receptor (Rattus norvegicus) (UniProt Q9ERZ8+Q9WUD2+O35433); test: Cation influx relative to capsaicin (CAP) in cultured neonatal rat dorsal root ganglia (No response); type: functional
Sequence (O35433 whole entry, looked up): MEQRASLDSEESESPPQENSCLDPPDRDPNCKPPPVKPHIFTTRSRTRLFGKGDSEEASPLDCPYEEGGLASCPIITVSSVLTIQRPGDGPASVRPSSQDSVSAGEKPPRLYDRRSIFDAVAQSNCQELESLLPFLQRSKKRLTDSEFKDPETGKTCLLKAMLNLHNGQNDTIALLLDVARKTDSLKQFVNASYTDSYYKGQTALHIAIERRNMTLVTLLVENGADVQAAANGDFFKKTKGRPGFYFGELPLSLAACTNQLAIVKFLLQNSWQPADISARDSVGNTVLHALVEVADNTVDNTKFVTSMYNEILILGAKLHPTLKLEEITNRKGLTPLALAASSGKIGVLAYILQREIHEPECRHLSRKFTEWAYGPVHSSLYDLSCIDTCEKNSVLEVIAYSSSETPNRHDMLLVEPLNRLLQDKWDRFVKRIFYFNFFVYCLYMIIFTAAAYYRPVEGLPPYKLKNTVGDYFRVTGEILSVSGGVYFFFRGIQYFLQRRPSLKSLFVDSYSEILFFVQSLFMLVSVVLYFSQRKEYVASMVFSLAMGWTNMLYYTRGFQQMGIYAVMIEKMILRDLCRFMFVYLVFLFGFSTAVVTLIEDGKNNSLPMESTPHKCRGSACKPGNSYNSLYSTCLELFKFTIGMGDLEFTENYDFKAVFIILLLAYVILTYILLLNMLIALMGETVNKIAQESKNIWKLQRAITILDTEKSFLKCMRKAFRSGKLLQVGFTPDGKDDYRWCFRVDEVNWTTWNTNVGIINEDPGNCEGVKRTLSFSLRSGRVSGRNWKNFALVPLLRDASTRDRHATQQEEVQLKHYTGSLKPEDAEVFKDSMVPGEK
Sequence (Q9ERZ8 whole entry, looked up): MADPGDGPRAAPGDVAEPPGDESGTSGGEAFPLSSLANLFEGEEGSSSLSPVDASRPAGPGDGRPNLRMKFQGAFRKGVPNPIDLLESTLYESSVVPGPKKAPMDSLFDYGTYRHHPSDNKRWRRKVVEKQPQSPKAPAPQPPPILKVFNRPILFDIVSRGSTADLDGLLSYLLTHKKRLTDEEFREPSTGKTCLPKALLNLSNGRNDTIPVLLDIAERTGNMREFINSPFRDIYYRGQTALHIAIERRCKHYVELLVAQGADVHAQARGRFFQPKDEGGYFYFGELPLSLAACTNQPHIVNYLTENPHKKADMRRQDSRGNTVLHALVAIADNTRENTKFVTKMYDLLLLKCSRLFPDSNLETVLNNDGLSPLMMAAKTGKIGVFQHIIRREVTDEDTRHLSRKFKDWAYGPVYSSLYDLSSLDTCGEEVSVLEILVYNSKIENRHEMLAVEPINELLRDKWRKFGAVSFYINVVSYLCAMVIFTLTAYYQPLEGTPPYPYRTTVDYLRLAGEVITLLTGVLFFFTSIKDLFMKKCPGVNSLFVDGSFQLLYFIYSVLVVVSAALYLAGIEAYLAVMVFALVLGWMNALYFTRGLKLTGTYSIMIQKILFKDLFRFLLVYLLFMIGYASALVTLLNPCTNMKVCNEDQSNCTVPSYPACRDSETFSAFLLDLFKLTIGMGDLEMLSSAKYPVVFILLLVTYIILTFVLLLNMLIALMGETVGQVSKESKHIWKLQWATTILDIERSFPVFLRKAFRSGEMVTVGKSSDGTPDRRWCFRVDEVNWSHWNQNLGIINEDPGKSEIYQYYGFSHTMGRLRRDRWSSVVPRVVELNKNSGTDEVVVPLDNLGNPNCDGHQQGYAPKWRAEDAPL
Sequence (Q9WUD2 whole entry, looked up): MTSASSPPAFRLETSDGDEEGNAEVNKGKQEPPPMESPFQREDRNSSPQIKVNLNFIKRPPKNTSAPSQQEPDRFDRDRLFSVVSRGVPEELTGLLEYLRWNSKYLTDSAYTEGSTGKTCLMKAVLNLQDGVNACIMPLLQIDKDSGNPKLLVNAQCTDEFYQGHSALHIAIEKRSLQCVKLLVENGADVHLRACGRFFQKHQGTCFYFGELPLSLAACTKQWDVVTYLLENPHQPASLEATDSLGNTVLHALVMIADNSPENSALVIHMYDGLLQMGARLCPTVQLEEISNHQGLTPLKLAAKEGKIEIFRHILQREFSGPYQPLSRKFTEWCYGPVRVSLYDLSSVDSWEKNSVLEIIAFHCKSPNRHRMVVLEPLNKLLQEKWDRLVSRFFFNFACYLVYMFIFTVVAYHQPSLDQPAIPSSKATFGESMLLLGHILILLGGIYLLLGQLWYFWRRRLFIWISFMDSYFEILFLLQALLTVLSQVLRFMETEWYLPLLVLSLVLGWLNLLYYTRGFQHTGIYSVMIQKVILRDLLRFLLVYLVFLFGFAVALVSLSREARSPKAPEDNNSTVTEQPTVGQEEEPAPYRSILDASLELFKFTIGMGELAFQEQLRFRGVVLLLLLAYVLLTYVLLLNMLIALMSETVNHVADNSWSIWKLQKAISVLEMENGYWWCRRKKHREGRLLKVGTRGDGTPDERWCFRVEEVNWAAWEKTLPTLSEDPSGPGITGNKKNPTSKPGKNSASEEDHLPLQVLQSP
Activity calls are given as the source filed them. No cut-off for these calls is given here.
observed property: Cation influx

- compound: "COc1cc(CC(=O)NCC(COCc2ccccc2)COC(C)=O)ccc1O (configuration not stated)"
  result: "inactive"
- compound: "COc1cc(CC(=O)OCC(COC(C)=O)Cc2ccccc2)ccc1O (configuration not stated)"
  result: "inactive"
- compound: "COc1cc(CC(=O)OCC(COC(C)=O)OCc2ccccc2)ccc1O (configuration not stated)"
  result: "inactive"
- compound: "COc1cc(CC(=O)OCC(COCc2ccccc2)COC(C)=O)ccc1O (configuration not stated)"
  result: "inactive"
- compound: "COc1cc(CC(=O)OC/C(=C\\COCc2ccccc2)COC(C)=O)ccc1O"
  result: "inactive"
- compound: "COc1cc(CC(=O)OC/C(=C/COCc2ccccc2)COC(C)=O)ccc1O"
  result: "inactive"
- compound: "COc1cc(CC(=O)NCC(COC(C)=O)OCc2ccccc2)ccc1O (configuration not stated)"
  result: "inactive"
